test system: NCI-H441 (Lung Adenocarcinoma); experiment: combination Emax (second highest fraction inhibited in the dose matrix, 72 h); higher = more inhibition; extreme values may be limits of the assay
If the reported combination Emax equals or exceeds 0.4, assign satisfied. If not, assign not satisfied.

COMPOUND | CLASS_NAME
Cc1cc2ncnn2cc1Nc1ncc2c(n1)n(C1CCOCC1)c(=O)n2C [AZD7648] + COc1cc([C@@H]2c3cc4c(cc3[C@@H](O[C@@H]3O[C@@H]5CO[C@@H](C)O[C@H]5[C@H](O)[C@H]3O)[C@H]3COC(=O)[C@H]23)OCO4)cc(OC)c1O [Etoposide] (first compound max 10 µM, 7x7, partner max 10 µM) | satisfied
Cc1c2c(nn1C)CSCc1cc(n(C)n1)CSc1cc(c3ccccc3c1)OCCCc1c(C(=O)O)n(C)c3c-2c(Cl)ccc13 [AZD5991] + CC1(C)CCC(CN2CCN(c3ccc(C(=O)NS(=O)(=O)c4ccc(NCC5CCOCC5)c([N+](=O)[O-])c4)c(Oc4cnc5[nH]ccc5c4)c3)CC2)=C(c2ccc(Cl)cc2)C1 [Venetoclax] (first compound max 1 µM, 7x7, partner max 1 µM) | not satisfied
CC1(C)CCC(CN2CCN(c3ccc(C(=O)NS(=O)(=O)c4ccc(NCC5CCOCC5)c([N+](=O)[O-])c4)c(Oc4cnc5[nH]ccc5c4)c3)CC2)=C(c2ccc(Cl)cc2)C1 [Venetoclax] + CCN(CCO)CCCOc1ccc2c(Nc3cc(CC(=O)Nc4cccc(F)c4)[nH]n3)ncnc2c1 [AZD2811] (first compound max 1 µM, 7x7, partner max 1 µM) | not satisfied
O=C(c1cc(Cc2n[nH]c(=O)c3ccccc23)ccc1F)N1CCN(C(=O)C2CC2)CC1 [Olaparib] + COc1nnc2ccc(N3CCC(c4ccc(OCCN5CCN(C)C(=O)[C@H]5C)cc4)CC3)nn12 [AZD5153] (first compound max 10 µM, 7x7, partner max 1 µM) | not satisfied
NC1(C(=O)N[C@@H](CCO)c2ccc(Cl)cc2)CCN(c2ncnc3[nH]ccc23)CC1 [Capivasertib] + CC(=O)c1c(C)c2cnc(Nc3ccc(N4CCNCC4)cn3)nc2n(C2CCCC2)c1=O [Palbociclib] (first compound max 10 µM, 7x7, partner max 10 µM) | not satisfied

----------
test system: MHH-ES-1 (Ewing's Sarcoma); experiment: Bliss excess, mean over the matrix (fraction); higher = more synergy
Quick list: Bliss excess per entry.

MOLECULE | SYSTEM | Bliss excess
CC(=O)c1c(C)c2cnc(Nc3ccc(N4CCNCC4)cn3)nc2n(C2CCCC2)c1=O [Palbociclib] + Cc1c2c(nn1C)CSCc1cc(n(C)n1)CSc1cc(c3ccccc3c1)OCCCc1c(C(=O)O)n(C)c3c-2c(Cl)ccc13 [AZD5991] (first compound max 10 µM, 7x7, partner max 1 µM) | MHH-ES-1 (Ewing's Sarcoma) | -0.008
CN(CCO)CC[C@H](CSc1ccccc1)Nc1ccc(S(=O)(=O)NC(=O)c2ccc(N3CCC([C@@H](O)c4ccccc4-c4ccc(Cl)cc4)CC3)cc2)cc1S(=O)(=O)C(F)(F)F [AZD4320] + C=CCn1c(=O)c2cnc(Nc3ccc(N4CCN(C)CC4)cc3)nc2n1-c1cccc(C(C)(C)O)n1 [AZD1775] (first compound max 1 µM, partner max 1 µM) | MHH-ES-1 (Ewing's Sarcoma) | 0.0439
CN(CCO)CC[C@H](CSc1ccccc1)Nc1ccc(S(=O)(=O)NC(=O)c2ccc(N3CCC([C@@H](O)c4ccccc4-c4ccc(Cl)cc4)CC3)cc2)cc1S(=O)(=O)C(F)(F)F [AZD4320] + CS(=O)(=O)CCNCc1ccc(-c2ccc3ncnc(Nc4ccc(OCc5cccc(F)c5)c(Cl)c4)c3c2)o1 [Lapatinib] (first compound max 1 µM, 7x7, partner max 10 µM) | MHH-ES-1 (Ewing's Sarcoma) | 0.136

----------
tested on: HCC70 (Breast Carcinoma); experiment: Bliss excess, mean over the matrix (fraction); higher = more synergy
Quick list: Bliss excess per entry.

COMPOUND | Bliss excess
C=CCn1c(=O)c2cnc(Nc3ccc(N4CCN(C)CC4)cc3)nc2n1-c1cccc(C(C)(C)O)n1 [AZD1775] + C[C@@H]1COCCN1C2=NC(=NC(=C2)C3(CC3)[S@](=N)(=O)C)C4=C5C=CNC5=NC=C4 [AZD6738] (first compound max 1 µM, partner max 10 µM) | -0.0312
O=C(c1cc(Cc2n[nH]c(=O)c3ccccc23)ccc1F)N1CCN(C(=O)C2CC2)CC1 [Olaparib] + CN(CC[C@H](CSC1=CC=CC=C1)NC2=C(C=C(C=C2)S(=O)(=O)NC(=O)C3=CC=C(C=C3)N4CCC(CC4)[C@H](C5=CC=CC=C5C6=CC=C(C=C6)Cl)O)S(=O)(=O)C(F)(F)F)CCO [AZD4320] (first compound max 10 µM, 7x7, partner max 1 µM) | 0.0129
CC1(C)CCC(CN2CCN(c3ccc(C(=O)NS(=O)(=O)c4ccc(NCC5CCOCC5)c([N+](=O)[O-])c4)c(Oc4cnc5[nH]ccc5c4)c3)CC2)=C(c2ccc(Cl)cc2)C1 [Venetoclax] + C=CCn1c(=O)c2cnc(Nc3ccc(N4CCN(C)CC4)cc3)nc2n1-c1cccc(C(C)(C)O)n1 [AZD1775] (first compound max 1 µM, partner max 1 µM) | 0.0562

----------
Quick list: Bliss excess per entry.
test system: NCI-H2087 (Lung Adenocarcinoma); assay: Bliss excess, mean over the matrix (fraction); higher = more synergy

COMPOUND | Bliss excess
C[C@@H](c1ccc2nccn2c1)n1nnc2ncc(-c3cnn(C)c3)nc21 [Savolitinib] + CC1(C)CCC(CN2CCN(c3ccc(C(=O)NS(=O)(=O)c4ccc(NCC5CCOCC5)c([N+](=O)[O-])c4)c(Oc4cnc5[nH]ccc5c4)c3)CC2)=C(c2ccc(Cl)cc2)C1 [Venetoclax] (first compound max 1 µM, 7x7, partner max 1 µM) | -0.0716
Cc1c2c(nn1C)CSCc1cc(n(C)n1)CSc1cc(c3ccccc3c1)OCCCc1c(C(=O)O)n(C)c3c-2c(Cl)ccc13 [AZD5991] + CC(=O)O[C@H]1C(=O)[C@@]2(C)[C@H]([C@H](OC(=O)c3ccccc3)[C@]3(O)C[C@H](OC(=O)[C@H](O)[C@@H](NC(=O)c4ccccc4)c4ccccc4)C(C)=C1C3(C)C)[C@]1(OC(C)=O)CO[C@@H]1C[C@@H]2O [Paclitaxel] (first compound max 1 µM, 7x7, partner max 3 µM) | 0.0128
Cc1nc(Nc2ncc(C(=O)Nc3c(C)cccc3Cl)s2)cc(N2CCN(CCO)CC2)n1 [Dasatinib] + CC(=O)Nc1cccc(-n2c(=O)n(C3CC3)c(=O)c3c(Nc4ccc(I)cc4F)n(C)c(=O)c(C)c32)c1 [Trametinib] (first compound max 2 µM, 7x7, partner max 1 µM) | -0.0024

----------
test system: A204 (Rhabdomyosarcoma); experiment: Bliss excess, mean over the matrix (fraction); higher = more synergy

COMPOUND | Bliss excess
COc1cc2c(cc1OCCCCCOc1cc3c(cc1OC)C(=O)N1C=C(C)C[C@H]1C=N3)N=C[C@@H]1CC(C)=CN1C2=O [SG3199] + O=C(c1cc(Cc2n[nH]c(=O)c3ccccc23)ccc1F)N1CCN(C(=O)C2CC2)CC1 [Olaparib] (first compound max 0.001 µM, 7x7, partner max 10 µM) | -0.0686
COc1nnc2ccc(N3CCC(c4ccc(OCCN5CCN(C)C(=O)[C@H]5C)cc4)CC3)nn12 [AZD5153] + Cn1cnc2c(F)c(Nc3ccc(Br)cc3Cl)c(C(=O)NOCCO)cc21 [Selumetinib] (first compound max 1 µM, 7x7, partner max 10 µM) | -0.0838
CN(CCO)CC[C@H](CSc1ccccc1)Nc1ccc(S(=O)(=O)NC(=O)c2ccc(N3CCC([C@@H](O)c4ccccc4-c4ccc(Cl)cc4)CC3)cc2)cc1S(=O)(=O)C(F)(F)F [AZD4320] + C[C@@H](Nc1cc(F)cc(F)c1)c1cc(C(=O)N(C)C)cc2c(=O)cc(N3CCOCC3)oc12 [AZD8186] (first compound max 1 µM, 7x7, partner max 3 µM) | 0.0119

----------
test system: EB2 (Burkitt's Lymphoma); experiment: combination Emax (second highest fraction inhibited in the dose matrix, 72 h); higher = more inhibition; extreme values may be limits of the assay
Quick list: combination Emax per entry.

COMPOUND | SYSTEM | combination Emax
COc1nnc2ccc(N3CCC(c4ccc(OCCN5CCN(C)C(=O)[C@H]5C)cc4)CC3)nn12 [AZD5153] + C=CCn1c(=O)c2cnc(Nc3ccc(N4CCN(C)CC4)cc3)nc2n1-c1cccc(C(C)(C)O)n1 [AZD1775] (first compound max 1 µM, partner max 1 µM) | EB2 (Burkitt's Lymphoma) | 0.796
CCN(CCO)CCCOc1ccc2c(Nc3cc(CC(=O)Nc4cccc(F)c4)[nH]n3)ncnc2c1 [AZD2811] + C=CCn1c(=O)c2cnc(Nc3ccc(N4CCN(C)CC4)cc3)nc2n1-c1cccc(C(C)(C)O)n1 [AZD1775] (first compound max 1 µM, partner max 1 µM) | EB2 (Burkitt's Lymphoma) | 0.77
CN(CCO)CC[C@H](CSc1ccccc1)Nc1ccc(S(=O)(=O)NC(=O)c2ccc(N3CCC([C@@H](O)c4ccccc4-c4ccc(Cl)cc4)CC3)cc2)cc1S(=O)(=O)C(F)(F)F [AZD4320] + Cc1cc2ncnn2cc1Nc1ncc2c(n1)n(C1CCOCC1)c(=O)n2C [AZD7648] (first compound max 1 µM, 7x7, partner max 10 µM) | EB2 (Burkitt's Lymphoma) | 0.431
